Target: Sex hormone-binding globulin (Homo sapiens)
Sequence (P04278 whole entry): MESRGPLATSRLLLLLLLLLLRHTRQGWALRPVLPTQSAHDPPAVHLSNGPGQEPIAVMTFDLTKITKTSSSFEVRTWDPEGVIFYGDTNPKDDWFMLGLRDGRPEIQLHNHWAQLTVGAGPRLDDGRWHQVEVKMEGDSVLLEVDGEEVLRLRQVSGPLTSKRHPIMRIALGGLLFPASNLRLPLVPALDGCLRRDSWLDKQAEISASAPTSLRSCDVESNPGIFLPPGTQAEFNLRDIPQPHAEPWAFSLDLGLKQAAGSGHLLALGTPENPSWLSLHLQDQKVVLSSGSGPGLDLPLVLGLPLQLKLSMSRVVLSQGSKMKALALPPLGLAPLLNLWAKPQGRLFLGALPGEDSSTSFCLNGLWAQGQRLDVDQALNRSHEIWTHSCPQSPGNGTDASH
assay endpoint: IC50
Lab note: write values as number then unit, every time.

QUERY: # query: IC50 of entry CC12CCNC(=O)C=C1CCC1C2CCC2(C)C(O)CCC12 (configuration not stated)
RESULT: 950 nM

QUERY: May I ask what IC50 has been recorded for C[C@]12CC[C@H]3[C@@H](CCC4=CC(=O)CC[C@@]43C)[C@@H]1CC[C@@H]2O [TESTOSTERONE] ?
RESULT: 14 nM
